Molecular target: recombinant human GST-SYK (Homo sapiens, UniProt P43405)
Construct: purchased Carna Biosciences 08-176
Assay: Homogeneous Time-Resolved Fluorescence (HTRF) assay for the recombinant human Syk enzyme
Assay type: biochemical
Details: HTRF assay, recombinant human GST-SYK; IC50 given as class symbols; read-out: rhSYK Activity
As shown below, each of these compounds has a reported IC50 value.

{"compound": "Cc1cc(Nc2nccc(C(F)(F)F)n2)cc(-c2cncc(C3(O)CCNCC3)c2)c1 [Example 9.7]", "measured-target": "recombinant human GST-SYK (Homo sapiens, UniProt P43405)", "IC50": "< 100 nM"}
{"compound": "Cc1cc(Nc2nccc(C(F)(F)F)n2)cc(-c2ccc(C(N)=O)nc2)c1 [Example 12.6]", "measured-target": "recombinant human GST-SYK (Homo sapiens, UniProt P43405)", "IC50": "< 100 nM"}
{"compound": "Cc1cc(Nc2nccc(C(F)(F)F)n2)cc(-c2ccc(-c3noc(=O)[nH]3)nc2)c1 [Example 18.11]", "measured-target": "recombinant human GST-SYK (Homo sapiens, UniProt P43405)", "IC50": "< 100 nM"}
{"compound": "OC1(c2cccc(-c3cc(Nc4nccc(C(F)(F)F)n4)cc(N4CCOCC4)c3)n2)CCC1 [Example 1.1]", "measured-target": "recombinant human GST-SYK (Homo sapiens, UniProt P43405)", "IC50": "100 to 1000 nM"}
{"compound": "Cc1cc(Nc2nccc(C(F)(F)F)n2)cc(-c2cncc(NCCO)c2)c1 [Example 15.22]", "measured-target": "recombinant human GST-SYK (Homo sapiens, UniProt P43405)", "IC50": "< 100 nM"}
{"compound": "Cc1cc(Nc2nccc(C(F)(F)F)n2)cc(-c2ccc(N3CCC(C(=O)O)CC3)nc2)c1 [Example 7.136]", "measured-target": "recombinant human GST-SYK (Homo sapiens, UniProt P43405)", "IC50": "< 100 nM"}
{"compound": "Cc1cc(Nc2nccc(C(F)(F)F)n2)cc(-c2ccc(C(=O)NCc3cncn3C)nc2)c1 [Example 16.15]", "measured-target": "recombinant human GST-SYK (Homo sapiens, UniProt P43405)", "IC50": "100 to 1000 nM"}
{"compound": "CCOC(=O)/C=C/c1ccc(-c2cc(C)cc(Nc3nccc(C(F)(F)F)n3)c2)cn1 [Example 22.1]", "measured-target": "recombinant human GST-SYK (Homo sapiens, UniProt P43405)", "IC50": "100 to 1000 nM"}
{"compound": "Cc1cc(Nc2nccc(C(F)(F)F)n2)cc(-c2ccc(C(=O)NC(C)c3ccccn3)nc2)c1 (stereo not shown) [Example 16.22]", "measured-target": "recombinant human GST-SYK (Homo sapiens, UniProt P43405)", "IC50": "100 to 1000 nM"}
{"compound": "Cc1cc(Nc2nccc(C(F)(F)F)n2)cc(-c2ccnc(C(C)(C)O)c2)c1 [Example 9.61]", "measured-target": "recombinant human GST-SYK (Homo sapiens, UniProt P43405)", "IC50": "< 100 nM"}
{"compound": "Cc1cc(Nc2nccc(C(F)(F)F)n2)cc(-c2ccc(NCCCN)nc2)c1 [Example 7.26]", "measured-target": "recombinant human GST-SYK (Homo sapiens, UniProt P43405)", "IC50": "< 100 nM"}
{"compound": "Cc1cc(Nc2nccc(C(F)(F)F)n2)cc(-c2ccc(NC(C)(CC(F)(F)F)c3nnn[nH]3)nc2)c1 (stereo not shown) [Example 18.7]", "measured-target": "recombinant human GST-SYK (Homo sapiens, UniProt P43405)", "IC50": "< 100 nM"}
{"compound": "Cc1cc(Nc2nccc(C3CC3)n2)cc(-c2ccnc(CCC(=O)O)c2)c1 [Example 2.137]", "measured-target": "recombinant human GST-SYK (Homo sapiens, UniProt P43405)", "IC50": "< 100 nM"}
{"compound": "Cc1cc(Nc2nccc(C(F)(F)F)n2)cc(-c2ccc(N3CCC[C@@H](C(=O)N4CCC[C@@H](C(=O)O)C4)C3)nc2)c1 [Example 7.149]", "measured-target": "recombinant human GST-SYK (Homo sapiens, UniProt P43405)", "IC50": "< 100 nM"}
{"compound": "Cc1cc(Nc2nccc(C(F)(F)F)n2)cc(-c2ccc(C(=O)N3CCNC(=O)CC3)nc2)c1 [Example 16.19]", "measured-target": "recombinant human GST-SYK (Homo sapiens, UniProt P43405)", "IC50": "< 100 nM"}
{"compound": "O=C(O)[C@@H]1CCN1c1ccc(-c2cccc(Nc3nccc(C(F)(F)F)n3)c2)cn1 [Example 7.126]", "measured-target": "recombinant human GST-SYK (Homo sapiens, UniProt P43405)", "IC50": "< 100 nM"}

====

Molecular target: recombinant human GST-SYK (Homo sapiens, UniProt P43405)
Construct: purchased Carna Biosciences 08-176
Assay: Homogeneous Time-Resolved Fluorescence (HTRF) assay for the recombinant human Syk enzyme
Format: biochemical
Details: HTRF assay, recombinant human GST-SYK; IC50 given as class symbols; read-out: rhSYK Activity
parameter-measured: IC50

{"compound": "COc1nc(Nc2cc(C)cc(-c3ccc(N[C@H]4CC[C@H](C(=O)O)CC4)nc3)c2)ncc1Cl", "test-value": "100 to 1000 nM"}
{"compound": "Cc1cc(Nc2ncc(F)c(C3CC3)n2)cc(-c2ccc(NC(C)(C)C(=O)O)nc2)c1", "test-value": "< 100 nM"}
{"compound": "Cc1cc(Nc2nccc(C(F)(F)F)n2)cc(-c2ccc([C@]3(O)CC[C@@](C)(C(=O)O)CC3)nc2)c1", "test-value": "< 100 nM"}
{"compound": "Cc1cc(Nc2nccc(C(F)(F)F)n2)cc(-c2ccc(N3CC[C@H]3C(N)=O)nc2)c1", "test-value": "< 100 nM"}
{"compound": "Cc1cc(Nc2nccc(C3CC3)n2)cc(-c2ccc(C(C)(O)[C@H]3CC[C@H](C(=O)O)CC3)nc2)c1 (single isomer, unassigned) [Example 9.19]", "test-value": "< 100 nM"}
{"compound": "CC1(C)CC(O)(c2ccc(-c3cccc(Nc4nccc(C(F)(F)F)n4)c3)cn2)CCC1C(=O)O (centres unmarked)", "test-value": "< 100 nM"}
{"compound": "CC(=O)N1CCN(c2ccc(-c3cc(C)cc(Nc4nccc(C(F)(F)F)n4)c3)cn2)CC1", "test-value": "100 to 1000 nM"}
{"compound": "Cc1cc(Nc2nccc(C(F)F)n2)cc(-c2ccc(C(C)(O)C3CCC(C(=O)O)CC3)nc2)c1 (single isomer, unassigned) [Example 9.31]", "test-value": "< 100 nM"}
{"compound": "Cc1cc(Nc2nccc(C(F)(F)F)n2)cc(-c2cncc(CCC(=O)O)c2)c1", "test-value": "< 100 nM"}
{"compound": "Cc1cc(Nc2nccc(C(F)(F)F)n2)cc(-c2ccc(C(=O)N3CCn4ccnc4C3)nc2)c1", "test-value": "< 100 nM"}
{"compound": "Cc1cc(Nc2nccc(C(F)(F)F)n2)cc(-c2ccc(N3CCC3C(=O)O)nc2)c1 (centres unmarked)", "test-value": "< 100 nM"}
{"compound": "Cc1cc(Nc2nccc(C(F)(F)F)n2)cc(-c2ccc(N3CCC(F)(F)CC3)nc2)c1", "test-value": "100 to 1000 nM"}
{"compound": "COc1ccnc(Nc2cc(C)cc(-c3ccc(CCC(=O)O)nc3)c2)n1", "test-value": "< 100 nM"}
{"compound": "Cc1cc(Nc2nccc(C(F)(F)F)n2)cc(-c2ccc(C(=O)N3CCC(C)(O)CC3)nc2)c1", "test-value": "< 100 nM"}

====

As shown below, each of these compounds has a reported IC50 value.
Target: recombinant human GST-SYK (Homo sapiens, UniProt P43405)
Construct: purchased Carna Biosciences 08-176
Assay: Homogeneous Time-Resolved Fluorescence (HTRF) assay for the recombinant human Syk enzyme
Type: biochemical
Conditions: HTRF assay, recombinant human GST-SYK; IC50 given as class symbols; read-out: rhSYK Activity

{"compound": "Cc1cc(Nc2nccc(C(F)(F)F)n2)cc(-c2ccnc(N3CCCC4(CCCO4)C3)c2)c1 (centres unmarked)", "measured-target": "recombinant human GST-SYK (Homo sapiens, UniProt P43405)", "IC50": "100 to 1000 nM"}
{"compound": "Cc1cc(Nc2nccc(C(F)(F)F)n2)cc(-c2ccc(C(=O)NCc3ncc[nH]3)nc2)c1", "measured-target": "recombinant human GST-SYK (Homo sapiens, UniProt P43405)", "IC50": "100 to 1000 nM"}
{"compound": "Cc1cc(Nc2nccc(C(F)(F)F)n2)cc(-c2ccc(S(=O)(=O)NCC(=O)O)nc2)c1", "measured-target": "recombinant human GST-SYK (Homo sapiens, UniProt P43405)", "IC50": "< 100 nM"}
{"compound": "Cc1cc(Nc2nccc(C(F)(F)F)n2)cc(-c2ccnc(NCC3CCC(=O)N3)c2)c1 (centres unmarked) [Example 15.32]", "measured-target": "recombinant human GST-SYK (Homo sapiens, UniProt P43405)", "IC50": "< 100 nM"}
{"compound": "Cc1cc(Nc2nccc(C(F)(F)F)n2)cc(-c2ccnc(N3CCCC4(CCCCO4)C3)c2)c1 (centres unmarked)", "measured-target": "recombinant human GST-SYK (Homo sapiens, UniProt P43405)", "IC50": "1000 to 10000 nM"}
{"compound": "Cc1cc(Nc2nccc(C(F)(F)F)n2)cc(-c2ccnc(N3CCN(C(=O)c4ccc5cc[nH]c5c4)CC3)c2)c1", "measured-target": "recombinant human GST-SYK (Homo sapiens, UniProt P43405)", "IC50": "100 to 1000 nM"}
{"compound": "CCOC(=O)c1cncc(-c2cc(C)cc(Nc3nccc(C(F)(F)F)n3)c2)c1", "measured-target": "recombinant human GST-SYK (Homo sapiens, UniProt P43405)", "IC50": "< 100 nM"}
{"compound": "Cc1cc(Nc2nccc(C(F)(F)F)n2)cc(-c2ccc(CC(=O)O)nc2)c1", "measured-target": "recombinant human GST-SYK (Homo sapiens, UniProt P43405)", "IC50": "< 100 nM"}

Source of measurements: patent US9376418B2
